tested on: YAPC (Pancreatic Carcinoma); test: Bliss excess, mean over the matrix (fraction); higher = more synergy;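 also: after 72 h of two-drug dosing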
// values below are reported Bliss excess
Just the number, please, no unit after it.

Worked examples follow.
| molecule | Bliss excess |
| --- | --- |
| CN(CCO)CC[C@H](CSc1ccccc1)Nc1ccc(S(=O)(=O)NC(=O)c2ccc(N3CCC([C@@H](O)c4ccccc4-c4ccc(Cl)cc4)CC3)cc2)cc1S(=O)(=O)C(F)(F)F [AZD4320] + CC(=O)O[C@H]1C(=O)[C@@]2(C)[C@H]([C@H](OC(=O)c3ccccc3)[C@]3(O)C[C@H](OC(=O)[C@H](O)[C@@H](NC(=O)c4ccccc4)c4ccccc4)C(C)=C1C3(C)C)[C@]1(OC(C)=O)CO[C@@H]1C[C@@H]2O [Paclitaxel] (first compound max 1 µM, 7x7, partner max 3 µM) | -0.0321 |
| CS(=O)(=O)CCNCc1ccc(-c2ccc3ncnc(Nc4ccc(OCc5cccc(F)c5)c(Cl)c4)c3c2)o1 [Lapatinib] + Cn1cnc2c(F)c(Nc3ccc(Br)cc3Cl)c(C(=O)NOCCO)cc21 [Selumetinib] (first compound max 10 µM, 7x7, partner max 10 µM) | 0.0037 |

Now for a further molecule.
Notebook: Cc1nc(-c2cn3c(n2)-c2ccc(-c4cnn(C(C)(C)C(N)=O)c4)cc2OCC3)n(C(C)C)n1 [Taselisib] + O=C(Nc1ccc2[nH]nc(-c3ccncc3)c2c1)[C@@H]1CCN(CC(=O)N2CCN(c3ccc(-c4ncccn4)cc3)CC2)C1 [SCH772984] (first compound max 10 µM, 7x7, partner max 5 µM) , Bliss excess read as 0.134

====

Listing: combination Emax of selected compounds
tested on: TGBC1TKB (Biliary Tract Carcinoma); assay: combination Emax (second highest fraction inhibited in the dose matrix, 72 h); higher = more inhibition; extreme values may be limits of the assay
Write the number on its own, no unit after it.

Below, each entry is followed by its recorded combination Emax result.
| compound | combination Emax |
| --- | --- |
| CN(CCO)CC[C@H](CSc1ccccc1)Nc1ccc(S(=O)(=O)NC(=O)c2ccc(N3CCC([C@@H](O)c4ccccc4-c4ccc(Cl)cc4)CC3)cc2)cc1S(=O)(=O)C(F)(F)F [AZD4320] + Cn1cnc2c(F)c(Nc3ccc(Br)cc3Cl)c(C(=O)NOCCO)cc21 [Selumetinib] (first compound max 1 µM, 7x7, partner max 3 µM) | 0.679 |
| CC1(C)CCC(CN2CCN(c3ccc(C(=O)NS(=O)(=O)c4ccc(NCC5CCOCC5)c([N+](=O)[O-])c4)c(Oc4cnc5[nH]ccc5c4)c3)CC2)=C(c2ccc(Cl)cc2)C1 [Venetoclax] + C1CN(CCC1(C(=O)N[C@@H](CCO)C2=CC=C(C=C2)Cl)N)C3=NC=NC4=C3C=CN4 [Capivasertib] (first compound max 1 µM, 7x7, partner max 3 µM) | 0.309 |
| CCc1c2c(nc3ccc(O)cc13)-c1cc3c(c(=O)n1C2)COC(=O)[C@]3(O)CC [SN-38] + CN(C)CCCOc1ccc(-c2ccc3ncc4c(c3c2)n(C2CCOCC2)c(=O)n4C)cn1 [AZD0156] (first compound max 0.3 µM, 7x7, partner max 1 µM) | 0.366 |

Now consider the entry below.
Per the reported TGBC1TKB (Biliary Tract Carcinoma) data, Cc1cc2ncnn2cc1Nc1ncc2c(n1)n(C1CCOCC1)c(=O)n2C [AZD7648] + COc1cc([C@@H]2c3cc4c(cc3[C@@H](O[C@@H]3O[C@@H]5CO[C@@H](C)O[C@H]5[C@H](O)[C@H]3O)[C@H]3COC(=O)[C@H]23)OCO4)cc(OC)c1O [Etoposide] (first compound max 10 µM, 7x7, partner max 10 µM) has combination Emax of 0.326
